Please respond with reported TGI for every item in the list.
System: IGROV1 ovarian
Assay: NCI tumour cell line growth inhibition, 48 h

Please indicate recorded TGI of CC(C)=CC(O)C(C(O)CCC1(C)OCCO1)S(=O)(=O)c1ccccc1 (stereo not given) measured with IGROV1 ovarian. > 100 µM

State recorded TGI with IGROV1 ovarian, entry `CCOC(=O)NC(Nc1ccc(OC(F)(F)F)cc1)(C(F)(F)F)C(F)(F)F` , no comment. > 100 µM

Quote IGROV1 ovarian TGI for entry CCCCC1CC(c2ccc(Cl)cc2)=NO1 (stereo not given) . > 100 µM

// fetch TGI; item: CC1=NCC[N+]1(CCc1ccccc1)Cc1ccccc1 (stereo not given) ; system: IGROV1 ovarian > 100 µM

Look up and report measured TGI (IGROV1 ovarian) for the following compound: `NCCc1c[nH]c2ccc(OC(=O)C(=O)O)cc12` > 100 µM

GET TGI | system: IGROV1 ovarian | item: CN1CCCC1c1cccnc1.O=C(O)c1ccccc1O.O=C([O-])c1ccccc1[OH2+].O=C([O-])c1ccccc1[OH2+].O=C([O-])c1ccccc1[OH2+].[Cu+2] (stereo not given) > 100 µM

Retrieve TGI on IGROV1 ovarian; query `COc1ccc([C@@H]2C[C@@H]3C(=O)OC(=O)[C@@H]3c3c2c2ccccc2n3C)cc1` > 100 µM

Report its TGI with IGROV1 ovarian as the test system: `COC(=O)Cc1cccc2c1CCC2=O` > 100 µM

Give TGI for this entry on IGROV1 ovarian: `COc1cc(/C=C/C(=O)Nc2ccc3c(c2)/C(=C\c2cccn2C)C(=O)N3)cc(OC)c1OC` 70.9 µM

Answer briefly: TGI recorded on IGROV1 ovarian for `CCOC(=O)NC(=O)c1cn(CCCOC(=O)CCCCCCCCC(=O)OCCCn2cc(C(=O)NC(=O)OCC)c(=O)n(C)c2=O)c(=O)n(C)c1=O` > 100 µM

Name the recorded TGI of `C[C@]1(O)CC[C@H]2[C@@H]3CCc4cc(O)ccc4[C@H]3CC[C@@]21C` , assay system IGROV1 ovarian. 27.8 µM

Given Cn1c(C(O)C2(c3cccnc3)SCCCS2)cc2ccccc21 (stereo not given) , report its TGI on IGROV1 ovarian. > 100 µM

State TGI on IGROV1 ovarian. Entry: `CCn1c2ccccc2c2cc(/C=C(/C#N)C(N)=S)ccc21` 23.2 µM

# return TGI for COc1cc(C2NCCC(c3ccccc3)(c3ccccc3)N2)cc(OC)c1OC (stereo not given) , test system: IGROV1 ovarian > 100 µM

Report value: TGI, system: IGROV1 ovarian, compound: `CCOC(=O)C1C(c2ccccc2)=C(c2ccccc2)C(c2ccccc2)=C1c1ccccc1` > 70.2 µM

For IGROV1 ovarian, give TGI of the listed compound: Cc1ccc(NC(=O)/C(CC2N=c3c(ccc4c(O)c5ccccc5c(O)c34)=NC2O)=N/NC(C)(C)C)cc1 (stereo not given) 83.5 µM

Provide TGI, system IGROV1 ovarian, entry `CCOC(=O)c1c(NC(=O)COc2cccc3cccnc23)sc(C(=O)N(C)C)c1C` 49.2 µM

Report TGI under test system IGROV1 ovarian for O=C1C(Cl)C(c2cc(Br)cc(Br)c2O)N1n1cnc2ccccc2c1=O (stereo not given) . 70.7 µM

State TGI on IGROV1 ovarian. Entry: `Cc1ccc(C)c2c1C/C(=C\c1ccccc1C(=O)O)C2=O` > 100 µM

With IGROV1 ovarian as the test system, provide measured TGI for this compound: CC(CCOc1c2ccoc2cc2oc(=O)ccc12)C1=CC(=O)C(C)(C)O1 (stereo not given) > 100 µM
